Assay: Standard protocol for determination of kcat and KM (continuous spectrophotometric assay, Acetyl CoA hydrolysis at 235 nm)
Assay type: biochemical
Conditions: purified protein; about 23° C.; pH 6.8; 0.2 mM acetyl CoA; glyphosate 0.125 to 10 mM
Description: KM was calculated from the initial reaction rates obtained from concentrations of glyphosate ranging from 0.125 to 10 mM, using the Lineweaver-Burke transformation of the Michaelis-Menten equation. kcat/KM was determined by dividing the value determined for kcat by the value determined for KM. Using this methodology, kinetic parameters for a number of GAT polypeptides exemplified herein were determined. […]
Property: Km; scope: individual molecules
Record the result as number plus unit.

[[record]]
molecule = "SEQ ID NO: 307: GAT polypeptide (protein, 14_10H3, GAT polypeptide) MIEVKPINAEDTYEIRHRILRPNQPLEACKYETDLLRGAFHLGGYYRGKLVSIASFHQAEHPELEGQKQYQLRGMATLEEYREQKAGSTLIRHAEELLRKKGADLLWCNARTSASGYYKKLGFSEQGEVYDTPPVGPHILMYKKLT"
result = "600 µM"

[[record]]
molecule = "SEQ ID NO: 429: GAT polypeptide (protein, 9_22B1, GAT polypeptide) MIEVKPINAEDTYEIRHRILRPNQPLEACKYETDLLGGTFHLGGYYRGKLVSIASFHQAEHPELEGQKQYQLRGMATLEGYREQKAGSTLIRHAEELLRKKGADLLWCNARTSASGYYKKLGFSEQGEVYDLPPTGPHILMYKKLT"
result = "1400 µM"

[[record]]
molecule = "SEQ ID NO: 278: GAT polypeptide (protein, 10_2C7, GAT polypeptide) MIEVKPINAEDTYEIRHRILRPNQPLEACKYETDLLRGAFHLGGYYRGKLISIASFHQAEHPELEGQKQYQLRGMATLEGYREQKAGSTLIRHAEELLRKKGADLLWCNARTSASGYYKKLGFSEQGEVYDTPPVGPHILMYKKLT"
result = "1400 µM"

[[record]]
molecule = "SEQ ID NO: 463: GAT polypeptide (protein, 11_3C6, GAT polypeptide) MLEVKPINAEDTYELRHKILRPNQPIEACMFESDLLRGAFHLGGFYGGKLISIASFHQAEHSDLEGQKQYQLRGMATLEGYREQKAGSTLIRHAEEILRKRGADLLWCNARTSASGYYKKLGFSEQGEIFDTPPVGPHILMYKRIT"
result = "210 µM"

[[record]]
molecule = "SEQ ID NO: 486: GAT polypeptide (protein, 3_11A10, GAT polypeptide) MLEVKPINAEDTYELRHRILRPNQPIEACMYESDLLRGAFHLGGYYRGKLISIASFHQAEHSELQGQKQYQLRGMATLEGYREQKAGSSLVKHAEEILRKRGADLLWCNARTSASGYYKKLGFSEQGEIFETPPVGPHILMYKRIT"
result = "170 µM"


Now let's try a different one.
(Q) Identify Km associated with the molecule SEQ ID NO: 275: GAT polypeptide (protein, 10_20D10, GAT polypeptide) MIEVKPINAEDTYEIRHRILRPNQPLEACMYETDLLGGTLHLGGYYRGKLISIASFHQAEHPELEGQKQYQLRGMATLEEYREQKAGSTLIRHAEELLRKKGADLLWCNARTSASGYYKKLGFSEQGGVYDIPPVGPHILMYKKLT
(A) 1600 µM
